Assay: yeast display, Sf9 membrane polyspecificity reagent, FACS + sequencing; frameworks hold sequencing errors
READOUT LABEL: polyreactivity (PSR sort gate)

Consider the reported polyreactivity (PSR sort gate) for these sequences:
* QVQLVESGGGLVQEGGSLRLSCAASGGTFAYAMGWYRQAPGKERELVAAITWRGGDTYADSVKGRFTISRDNAKNTVYLQMNSLKPEDTAVYYCAAEFRDVSSNGYDYWGQGTQVTVSS | low polyreactivity
* QVQLVESGGGLVQAGGSLRLSCAHSGSISSRYAMGWYRQAPGKERELVARITRSGGSTYYADSVKGRFTISRDNAKNTVYLQMNRLKPEDTAVYYCNKRGTEIGYDYWGQGTQVTVLS | low polyreactivity
* QVQLVESGGGLVQAGGSLRLSCAASGFTFAYYAMGWYRQAPGKERELVAAITGSGGRTYYADSVKGRFTISRDNAKNTVYLQMNSLKPEDTAVYYCAALTGPYKAQVHGGHTPLDYWGQGTQVTVSS | low polyreactivity
* QVQLVESGGGLVQAGGSLRLSCAASGIIFRGYAMGWYRQAPGKERELVAGITSGGRTYYADSVKGRFTISRDNAKNTVYLQMNSLKPEDTAVYYCNADAYGDDWKIYDYWGQGTQVTVSS | low polyreactivity
* QVQLVESVGGLVPAGGSLRLSCAASGFTYPAYTMGWYRQAPGKERELVAAITSSGGNTYYADSVKGRFTISRDNAKNTVYLQMNSLKPEDTAVYYCYADASSSPYTDRQYIGADDSWGQGTQVTVSS | low polyreactivity

stdin: Give a short answer stating reported polyreactivity (PSR sort gate) for `QVQLVESGGGLVQAGGSLRLSCAASGNTFDIYAMGWYRQAPGKERELVAAISRRGGSTYYADSVKGRFTISRDNAKNTVYLQMNSLKPEDTAVYYCNTYSGPYSISDYWGQGTQVTVSS` .
stdout: high polyreactivity

stdin: Give a short answer stating reported polyreactivity (PSR sort gate) for `QVQLVESGGGLVQAGGSLRLSCAASGRTFRSDNAMGWYRQAPGKERELVAAISQGGGTYYADSVKGRFTISRDNAKNTVYLQMNSLKPEDTAVSYCARDAYYADPSLWYYTYDYWGQCTQVTVSS` .
stdout: low polyreactivity

stdin: Give a short answer stating reported polyreactivity (PSR sort gate) for `QVQLVESGGRLVQAGGSLRLSCAASGFTFGENAMGWYRQAPGKERELVAAITSGDGTSYADSVKGRFTISRDNAKNTVYLQMNSLKPEDTAVYYCAADGGDELYYSTYDYWGQGTQVTVSS` .
stdout: low polyreactivity

stdin: Give a short answer stating reported polyreactivity (PSR sort gate) for `QVQLVETGGGLVQAGGSFRLSCAASGGIFRTYAKGWYRQAPGKERELVAAISRSGGSTYYADSVKGRFTISRDNAKNTVYLQMNSLKPEDTAVYYCAASRPYYPLYGYWGQGTQVTVSS` .
stdout: high polyreactivity

stdin: Give a short answer stating reported polyreactivity (PSR sort gate) for `QVQLVESGGGLVQAVGSLRLSCAASGFTYSPNAMGWYRQAPGKERELVATISWNGGRTHYADSVKGRFTISRDNAKNTVYLQMNSLKPEDTAVYDCNVVRATGRYYYWGQGTQVTVSS` .
stdout: high polyreactivity

stdin: Give a short answer stating reported polyreactivity (PSR sort gate) for `QVQLLESGGGLVQAGGSLRLSCAASGRTFTRNAMGWNRQAPGKERELVATIRYSTGTTYYADSVKGRFTISRDNAKNTVYLQMNSLKPEDTAVYYCAARVYRYRGYDSWGKGTQVTVSS` .
stdout: high polyreactivity
